Measured melting point of individual entries

compound: CCN(CC)CCN1Cc2[nH]c(/C=C3\C(=O)Nc4ccccc43)c(C)c2C1=O [Compound 8]
melting point: 167 to 168 °C
//
compound: CCN(CC)CCN1Cc2[nH]c(/C=C3\C(=O)Nc4ccc(Cl)cc43)c(C)c2C1=O [Compound 10]
melting point: 252 to 253 °C
//
compound: CCN(CC)CCN1Cc2[nH]c(/C=C3\C(=O)Nc4ccc(F)cc43)c(C)c2C1=O [Compound 9]
melting point: 245 to 246 °C
//
compound: CCN(CC)CCN1Cc2[nH]c(/C=C3\C(=O)Nc4ccc(Br)cc43)c(C)c2C1=O [Compound 11]
melting point: 266 to 267 °C
//
compound: CCN(CC)CCN1Cc2[nH]c(/C=C3\C(=O)Nc4ccc(I)cc43)c(C)c2C1=O [Compound 12]
melting point: 267 to 268 °C

====

Parameter IC50, tested on VEGFR-2 (Homo sapiens), listed per item.
Sequence (P35968 20-1356): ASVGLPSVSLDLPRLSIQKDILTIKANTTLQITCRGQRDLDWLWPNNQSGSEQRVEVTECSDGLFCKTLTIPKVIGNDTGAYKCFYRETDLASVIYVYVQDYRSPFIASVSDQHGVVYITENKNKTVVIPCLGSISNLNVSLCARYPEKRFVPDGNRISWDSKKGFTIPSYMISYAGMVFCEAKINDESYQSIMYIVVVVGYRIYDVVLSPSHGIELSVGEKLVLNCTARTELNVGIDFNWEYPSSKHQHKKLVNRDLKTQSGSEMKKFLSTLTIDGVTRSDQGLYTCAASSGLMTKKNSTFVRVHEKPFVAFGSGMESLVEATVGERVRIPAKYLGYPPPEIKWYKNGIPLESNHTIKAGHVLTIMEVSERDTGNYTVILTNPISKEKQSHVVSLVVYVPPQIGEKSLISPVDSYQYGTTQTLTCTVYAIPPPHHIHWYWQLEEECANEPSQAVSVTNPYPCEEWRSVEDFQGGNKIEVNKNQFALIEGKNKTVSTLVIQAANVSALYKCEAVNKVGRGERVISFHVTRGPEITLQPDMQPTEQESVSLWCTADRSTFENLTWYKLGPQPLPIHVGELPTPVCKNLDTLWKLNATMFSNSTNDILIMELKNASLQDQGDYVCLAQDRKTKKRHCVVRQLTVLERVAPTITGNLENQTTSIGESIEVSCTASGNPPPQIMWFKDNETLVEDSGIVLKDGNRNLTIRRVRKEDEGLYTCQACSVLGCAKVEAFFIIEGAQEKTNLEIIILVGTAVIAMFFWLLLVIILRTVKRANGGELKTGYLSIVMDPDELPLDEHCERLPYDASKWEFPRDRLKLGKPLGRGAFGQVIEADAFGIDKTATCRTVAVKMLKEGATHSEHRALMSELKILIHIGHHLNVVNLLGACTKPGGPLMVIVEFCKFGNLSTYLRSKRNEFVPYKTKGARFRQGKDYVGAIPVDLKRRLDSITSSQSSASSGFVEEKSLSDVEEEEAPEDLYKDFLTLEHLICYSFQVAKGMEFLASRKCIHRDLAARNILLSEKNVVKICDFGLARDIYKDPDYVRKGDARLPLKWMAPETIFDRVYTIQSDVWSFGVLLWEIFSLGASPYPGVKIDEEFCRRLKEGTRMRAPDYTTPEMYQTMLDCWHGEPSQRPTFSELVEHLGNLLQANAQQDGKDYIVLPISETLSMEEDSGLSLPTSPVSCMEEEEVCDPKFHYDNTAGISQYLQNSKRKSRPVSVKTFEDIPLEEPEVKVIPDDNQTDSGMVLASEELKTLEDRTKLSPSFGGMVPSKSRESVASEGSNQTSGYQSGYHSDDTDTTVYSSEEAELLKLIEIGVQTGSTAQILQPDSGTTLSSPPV

compound: CCN(CC)CCN1Cc2[nH]c(/C=C3\C(=O)Nc4ccc(F)cc43)c(C)c2C1=O [Compound 9]
unit.tag: nM
IC50: 111
//
compound: CCN(CC)CCN1Cc2[nH]c(/C=C3\C(=O)Nc4ccc(Br)cc43)c(C)c2C1=O [Compound 11]
unit.tag: nM
IC50: 24.7
//
compound: CCN(CC)CCN1Cc2[nH]c(/C=C3\C(=O)Nc4ccc(I)cc43)c(C)c2C1=O [Compound 12]
unit.tag: nM
IC50: 35.1

====

- Tested on: 786-O
- test.summary: Cell proliferation assay (MTT)
- Assay type: cell-based, human
- experimental.setup: Homo sapiens, 786-0; MTT, 72 h incubation
pIC50: −log10 of the molar value.

compound: CCN(CC)CCN1Cc2[nH]c(/C=C3\C(=O)Nc4ccc(Br)cc43)c(C)c2C1=O [Compound 11]
assay.system: 786-O
value.prefix: =
pIC50: 5.15

compound: CCN(CC)CCN1Cc2[nH]c(/C=C3\C(=O)Nc4ccc(I)cc43)c(C)c2C1=O [Compound 12]
assay.system: 786-O
value.prefix: =
pIC50: 5.11

compound: CCN(CC)CCN1Cc2[nH]c(/C=C3\C(=O)Nc4ccc(F)cc43)c(C)c2C1=O [Compound 9]
assay.system: 786-O
value.prefix: <
pIC50: 5.00

compound: CCN(CC)CCN1Cc2[nH]c(/C=C3\C(=O)Nc4ccc(Cl)cc43)c(C)c2C1=O [Compound 10]
assay.system: 786-O
value.prefix: =
pIC50: 5.14

compound: CCN(CC)CCNC(=O)c1c(C)[nH]c(/C=C2\C(=O)Nc3ccc(F)cc32)c1C [Sunitinib, sunitinib, reference compound]
assay.system: 786-O
value.prefix: =
pIC50: 5.20

compound: CCN(CC)CCN1Cc2[nH]c(/C=C3\C(=O)Nc4ccccc43)c(C)c2C1=O [Compound 8]
assay.system: 786-O
value.prefix: <
pIC50: 5.00

====

Measured inhibition at 0.05 µM of individual entries
- assay.system: PDGFRβ (Homo sapiens, UniProt P09619)
- Construct: purchased Reaction Biology Corporation
- Sequence (P09619 33-1106): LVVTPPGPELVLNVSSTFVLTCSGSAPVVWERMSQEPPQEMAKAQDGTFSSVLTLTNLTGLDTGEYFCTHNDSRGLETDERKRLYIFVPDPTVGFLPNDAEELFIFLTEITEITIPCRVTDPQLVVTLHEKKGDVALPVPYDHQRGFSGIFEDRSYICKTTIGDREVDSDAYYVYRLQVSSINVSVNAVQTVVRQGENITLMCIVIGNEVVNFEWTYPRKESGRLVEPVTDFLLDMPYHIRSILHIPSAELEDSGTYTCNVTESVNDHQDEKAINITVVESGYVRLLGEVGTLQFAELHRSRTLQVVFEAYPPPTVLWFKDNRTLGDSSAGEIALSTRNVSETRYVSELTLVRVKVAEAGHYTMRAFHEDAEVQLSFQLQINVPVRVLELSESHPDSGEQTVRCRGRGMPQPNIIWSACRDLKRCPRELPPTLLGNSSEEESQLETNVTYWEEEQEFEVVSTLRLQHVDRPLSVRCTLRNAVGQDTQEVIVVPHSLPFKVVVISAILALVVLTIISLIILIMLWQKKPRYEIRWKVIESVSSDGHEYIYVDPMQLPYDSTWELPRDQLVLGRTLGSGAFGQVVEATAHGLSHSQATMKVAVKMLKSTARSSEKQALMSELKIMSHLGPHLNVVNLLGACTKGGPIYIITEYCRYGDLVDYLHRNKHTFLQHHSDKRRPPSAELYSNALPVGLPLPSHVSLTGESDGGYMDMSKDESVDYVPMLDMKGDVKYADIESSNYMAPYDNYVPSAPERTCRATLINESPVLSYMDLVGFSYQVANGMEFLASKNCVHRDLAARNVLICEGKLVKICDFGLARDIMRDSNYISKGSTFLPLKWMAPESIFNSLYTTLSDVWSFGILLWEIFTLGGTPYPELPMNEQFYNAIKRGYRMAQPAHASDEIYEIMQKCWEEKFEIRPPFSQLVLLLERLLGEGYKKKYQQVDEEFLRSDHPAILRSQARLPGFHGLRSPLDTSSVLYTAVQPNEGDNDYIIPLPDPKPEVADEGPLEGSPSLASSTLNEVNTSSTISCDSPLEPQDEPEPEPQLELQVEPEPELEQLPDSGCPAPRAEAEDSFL
- test.summary: In vitro kinase assay (HotSpot, 33P)
- Assay type: biochemical
- experimental.setup: 50 nM compound, ATP 10.0 μM

compound: CCN(CC)CCN1Cc2[nH]c(/C=C3\C(=O)Nc4ccc(Br)cc43)c(C)c2C1=O
assay.system: PDGFRβ (Homo sapiens, UniProt P09619)
inhibition at 0.05 µM / %: 68
//
compound: CCN(CC)CCN1Cc2[nH]c(/C=C3\C(=O)Nc4ccc(Cl)cc43)c(C)c2C1=O
assay.system: PDGFRβ (Homo sapiens, UniProt P09619)
inhibition at 0.05 µM / %: 64
//
compound: CCN(CC)CCN1Cc2[nH]c(/C=C3\C(=O)Nc4ccccc43)c(C)c2C1=O
assay.system: PDGFRβ (Homo sapiens, UniProt P09619)
inhibition at 0.05 µM / %: 64
//
compound: CCN(CC)CCN1Cc2[nH]c(/C=C3\C(=O)Nc4ccc(I)cc43)c(C)c2C1=O
assay.system: PDGFRβ (Homo sapiens, UniProt P09619)
inhibition at 0.05 µM / %: 62
//
compound: CCN(CC)CCN1Cc2[nH]c(/C=C3\C(=O)Nc4ccc(F)cc43)c(C)c2C1=O
assay.system: PDGFRβ (Homo sapiens, UniProt P09619)
inhibition at 0.05 µM / %: 36
//
compound: CCN(CC)CCNC(=O)c1c(C)[nH]c(/C=C2\C(=O)Nc3ccc(F)cc32)c1C [Sunitinib, sunitinib, reference compound]
assay.system: PDGFRβ (Homo sapiens, UniProt P09619)
inhibition at 0.05 µM / %: 44
